Taken from paper PMC4082485.

Assay System: HisRS 46-residue peptide (46-mer, Class II ATP binding site) (Escherichia coli)
Sequence (P60906 101-146): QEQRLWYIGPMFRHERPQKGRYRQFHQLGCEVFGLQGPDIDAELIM
Protocol Notes: fluorescence titration of ATP with peptide (Mildvan assay)
Recorded Conditions: pH 4.5; range printed jointly for the TrpRS and HisRS 46-mers, not assigned to either

[
  {
    "Molecule": "Nc1ncnc2c1ncn2[C@@H]1O[C@H](COP(=O)(O)OP(=O)(O)OP(=O)(O)O)[C@@H](O)[C@H]1O [ATP]",
    "Kd": "10 to 65 µM"
  }
]

====

Assay System: TrpRS 46-residue peptide (46-mer, Class I ATP binding site) (Geobacillus stearothermophilus, UniProt P00953)
Sequence (P00953 1-46 limits assumed): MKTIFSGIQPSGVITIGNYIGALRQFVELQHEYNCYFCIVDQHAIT
Protocol Notes: fluorescence titration of ATP with peptide (Mildvan assay)
pKd: −log10 of the molar value.
Endpoint: pKd

[
  {
    "Compound": "Nc1ncnc2c1ncn2[C@@H]1O[C@H](COP(=O)(O)OP(=O)(O)OP(=O)(O)O)[C@@H](O)[C@H]1O [ATP]",
    "Readout Value": "4.19 to 5.00"
  }
]
